TARGET_UNDER_TEST: human dopamine transporter (DAT) (Homo sapiens, UniProt Q01959)
Construct: expressed in transfected cells
Sequence (Q01959 whole entry): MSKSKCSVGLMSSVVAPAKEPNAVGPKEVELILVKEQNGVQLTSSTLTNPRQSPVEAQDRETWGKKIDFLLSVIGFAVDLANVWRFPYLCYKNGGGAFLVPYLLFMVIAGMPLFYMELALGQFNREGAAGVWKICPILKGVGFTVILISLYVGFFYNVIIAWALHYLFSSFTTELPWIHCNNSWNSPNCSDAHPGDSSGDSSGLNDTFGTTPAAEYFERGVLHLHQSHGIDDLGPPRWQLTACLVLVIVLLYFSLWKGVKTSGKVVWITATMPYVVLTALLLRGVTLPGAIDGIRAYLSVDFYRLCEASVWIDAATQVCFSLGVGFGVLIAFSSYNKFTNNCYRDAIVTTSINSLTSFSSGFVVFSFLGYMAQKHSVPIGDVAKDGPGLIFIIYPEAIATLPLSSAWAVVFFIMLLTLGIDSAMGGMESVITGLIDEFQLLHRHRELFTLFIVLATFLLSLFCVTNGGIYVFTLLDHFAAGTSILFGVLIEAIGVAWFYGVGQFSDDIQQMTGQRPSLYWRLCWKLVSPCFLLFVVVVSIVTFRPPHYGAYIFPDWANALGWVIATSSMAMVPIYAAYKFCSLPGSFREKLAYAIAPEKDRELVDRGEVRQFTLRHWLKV
EXPERIMENT_DESCRIPTION: Reuptake inhibition assay, [3H]-dopamine uptake in HEK-DAT cells
Format: cell-based
EXPERIMENTAL_PARAMETERS: HEK293 cells expressing human DAT, 0.2 μM [3H]-dopamine, 1 min; read-out: IC50, inhibition of DAT-mediated dopamine reuptake
READOUT_LABEL: pIC50
# pIC50: negative log10 of molar concentration; output just the value

Report pIC50 for [O-][S+](Cc1cncs1)C(c1ccccc1)c1ccccc1 (racemic) please. 5.34

Pending compound:
Report pIC50 for "[O-][S@+](Cc1cncs1)C(c1ccccc1)c1ccccc1" please. 4.65
